SUBJECT OF TEST: T1, hFc tagged human LAG3 ECD recombinant protein (human, UniProt P18627 23-450)
T1 construct: range 23-450; also called biotin labelled hFc tagged human LAG3 ECD; not shown: human IgG Fc tag
T1 sequence (looked up): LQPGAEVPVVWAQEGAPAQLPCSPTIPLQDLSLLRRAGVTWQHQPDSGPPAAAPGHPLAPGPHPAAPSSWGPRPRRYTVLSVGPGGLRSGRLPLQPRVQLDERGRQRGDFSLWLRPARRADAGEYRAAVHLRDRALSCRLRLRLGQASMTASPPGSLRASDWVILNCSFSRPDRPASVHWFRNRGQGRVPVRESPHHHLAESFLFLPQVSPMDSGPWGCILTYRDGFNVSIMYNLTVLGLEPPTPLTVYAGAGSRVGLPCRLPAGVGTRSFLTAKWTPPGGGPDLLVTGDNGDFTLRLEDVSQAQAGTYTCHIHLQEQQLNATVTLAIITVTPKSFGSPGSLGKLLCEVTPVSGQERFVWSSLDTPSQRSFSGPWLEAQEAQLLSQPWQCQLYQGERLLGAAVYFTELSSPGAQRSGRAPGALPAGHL
ASSAY NAME: competitive ELISA format II: biotin hFc-LAG3 ECD binding to coated His-FGL1
# IC50 per entry
Output spec: scalar in nM, unitless text.

{"BINDER": "029c (antibody, human IgG4, V domains shown, human IgG4 S228P / kappa chimeric antibody; also called chimeric antibody 029; not shown: human kappa light chain constant region (pcDNA3.4-hIgGk vector)) VH: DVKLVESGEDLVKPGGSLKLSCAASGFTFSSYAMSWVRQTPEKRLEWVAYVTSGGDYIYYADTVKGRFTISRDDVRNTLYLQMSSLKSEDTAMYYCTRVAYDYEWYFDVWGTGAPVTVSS VL: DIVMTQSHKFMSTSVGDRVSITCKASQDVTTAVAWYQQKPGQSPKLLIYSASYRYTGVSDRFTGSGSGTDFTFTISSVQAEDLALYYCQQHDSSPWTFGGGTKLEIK", "MEASURE": "IC50", "UNITS SYMBOL": "nM", "EXPERIMENTAL RESULT": 2}

Here's the next entry for you.
q: Determine from records and report IC50 for 023c (antibody, human IgG4, V domains shown, human IgG4 S228P / kappa chimeric antibody; also called chimeric antibody 023; ES005-023c; not shown: human kappa light chain constant region (pcDNA3.4-hIgGk vector)) VH: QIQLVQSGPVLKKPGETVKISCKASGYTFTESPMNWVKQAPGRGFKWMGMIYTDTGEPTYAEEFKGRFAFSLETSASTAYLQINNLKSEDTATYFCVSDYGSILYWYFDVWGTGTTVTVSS VL: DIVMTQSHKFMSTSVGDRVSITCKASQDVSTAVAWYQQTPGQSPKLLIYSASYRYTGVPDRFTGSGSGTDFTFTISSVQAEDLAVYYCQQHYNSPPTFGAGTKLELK
a: 1.47

This collection of values is drawn from patent US20250313625A1.
